- Experiment Summary: Compound was evaluated for the half life
- Type: ADME
Experimental Readout: log10 of half-life (log10 of the value in min)
Hi team, quick reminder: these entries are log10 of half-life (min).

Please look at this molecule and report its log10 of half-life: `CC(=O)Oc1c(C)ccc(C)c1/C=C\C(=O)N(C)Cc1ccccc1`
0.68

Please look at this molecule and report its log10 of half-life: `CC(=O)Oc1ccccc1/C=C\C(=O)N(C)Cc1ccccc1`
1.51

Please look at this molecule and report its log10 of half-life: `CCN(CC)C(=O)/C=C\c1c(C)ccc(C)c1OC(C)=O`
1.06

Please look at this molecule and report its log10 of half-life: `CCN(CC)C(=O)/C=C\c1ccccc1OC(C)=O`
2.27

Please look at this molecule and report its log10 of half-life: `CC(=O)Oc1cc(C)cc(C)c1/C=C\C(=O)N(C)Cc1ccccc1`
0.80

Please look at this molecule and report its log10 of half-life: `CCN(CC)C(=O)/C=C\c1c(C)cc(C)cc1OC(C)=O`
1.27
